# Test system: CAPAN-1
# Test details: Antiproliferative activity against human Capan1 cells
# Format: functional, cell-based
Kindly state pIC50 for each of the entries shown.
Just so you know, pIC50 here is -log10 of the concentration in molar units; reply with that number alone.

Record CNc1cc(-c2ccc3cnn(Cc4ccc(F)c([N+](=O)[O-])c4)c3c2)cn(C)c1=O , field pIC50: 5.40

Record Cc1sc2c(c1C)C(c1ccc(Cl)cc1)=N[C@@H](CC(=O)OC(C)(C)C)c1nnc(C)n1-2 , field pIC50: 6.10

Record CNc1cc(-c2ccc3cnn(Cc4ccc(F)c(F)c4)c3c2)cn(C)c1=O , field pIC50: 5.43

Record CNc1cc(-c2ccc3cnn(Cc4cc(OC)cc(OC)c4)c3c2)cn(C)c1=O , field pIC50: 5.42

Sourced from ChEMBL document CHEMBL4396933
